# experiment_description: antimalarial activity against Dd2 strain (AID 2302);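 also: 0% = DMSO untreated growth and 100% = chloroquine plus artemisinin killed control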
# condition_context: P. falciparum Dd2 in RBCs, LDH growth readout, 72 h; at 2 µM; stronger effect = higher value
Please note: yes (1) applies when growth inhibition is 60% or greater, and no (0) applies otherwise.

molecule	assigned_class
COc1ccccc1CCNc1nc(C)cc(NCCC(=O)NCCOc2ccccc2)n1	no (0)
Cc1cccc(CNc2ncc(C)c(NCCC(=O)Nc3ccccc3)n2)c1	no (0)
COc1cc(C(=O)Nc2cccc(-c3nc4ccccc4[nH]3)c2)cc(OC)c1OC	no (0)
Cc1cc(C2CCN(CCCCNC(=O)c3ccc(NC(=O)c4ccc(Cl)cc4)cc3)CC2)c(C)cc1OCCN(C)C	yes (1)
CCc1ccnc2c(N3CCCC3=O)cc(C(=O)N[C@@H](Cc3ccccc3)[C@H](O)CNC3CCOCC3)cc12	yes (1)
C#CCCC(=O)Nc1cccc(-c2cccc(-c3nc4c(C)cccc4[nH]3)c2)c1	no (0)
Cn1cncc1C(=O)Nc1ccc(-c2cccc(-c3nc4ccc(F)cc4[nH]3)c2)cc1	no (0)
CCCCCCNc1cc(C)nc(/N=C(\N)Nc2cccc(C(F)(F)F)c2)n1	yes (1)
O=C(N[C@H]1CCN(CCc2ccc(O[C@H]3CCNC3)cc2)C1)c1ccc(Cl)c(Cl)c1	no (0)
CN1CCCN(Cc2cccc(-c3cccc(NC(=O)c4ccc(C#N)cc4)c3)c2)CC1	no (0)
CCCCOC(=O)NCCCC[C@H](NC(=O)OC(C)(C)C)C(=O)N[C@H](C(=O)OC(c1ccccc1)c1ccccc1)[C@H]1O[C@@H](n2ccc(=O)[nH]c2=O)[C@@H]2OC(C)(C)O[C@@H]21	yes (1)
CCn1cc(CN2CCCC(C(=O)Nc3ccc(-c4nc5ccccc5[nH]4)cc3)C2)cn1 (configuration not stated)	no (0)
COc1ccc(/C=C/C(=O)N2CCc3cc4nccc(N5CCN6CCC[C@H]6C5)c4cc32)cc1	yes (1)
CNc1ccc(CNCc2ccc(-c3ccc(-c4nc5ccc(C(F)(F)F)cc5[nH]4)cc3)cc2)cc1	yes (1)
N#Cc1ccc2[nH]cc(-c3cn4cc(SC5CCCC5)ccc4n3)c2c1	no (0)
CC(C)Nc1cc(C(=O)N[C@@H](Cc2ccccc2)[C@H](O)CNCc2cccc(C(F)(F)F)c2)c(F)c(N2CCCCS2(=O)=O)c1	yes (1)
c1ccc(COc2ccc(Cn3ccc(-c4ccc(-n5ccnc5)cc4)n3)cc2)cc1 (tested in a mixture with another compound)	yes (1)

* * *

# study_target: L-lactate dehydrogenase (Plasmodium falciparum (isolate CDC / Honduras)) (UniProt Q27743)
# Sequence (Q27743 whole entry, looked up): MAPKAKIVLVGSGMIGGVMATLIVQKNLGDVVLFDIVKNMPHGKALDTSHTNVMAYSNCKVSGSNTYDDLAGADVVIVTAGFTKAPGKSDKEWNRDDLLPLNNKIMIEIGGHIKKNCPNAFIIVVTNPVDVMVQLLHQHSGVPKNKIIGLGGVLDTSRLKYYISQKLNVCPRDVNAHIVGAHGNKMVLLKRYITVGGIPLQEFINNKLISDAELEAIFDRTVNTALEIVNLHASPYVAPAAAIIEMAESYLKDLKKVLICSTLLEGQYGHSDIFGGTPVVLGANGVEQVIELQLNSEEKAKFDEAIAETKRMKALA
# experiment_description: PfLDH activity inhibition – cell lysate, 3D7 strain, counter-screen for P. falciparum growth inhibition project (AID 2304);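 also: 0% = vehicle and 100% = reference inhibitor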
# condition_context: P. falciparum 3D7 crude extract, LDH APAD/NBT absorbance; at 2 µM; stronger effect = higher value
assay_readout: inhibition (%)

In [3]: df
Out[3]:
                                   compound  assay_readout  recorded_number
0  C[C@H](NC(=O)c1c(CN2CCC(N3CCCCC3)CC2)c(-c2ccccc2)nc2cc(O)ccc12)C1CCCCC1     inhibition                0
1  Cc1cccc2c3c([nH]c12)C1(CCN(CCc2ccccc2)CC1)NC(C(=O)NCc1ccccc1)C3 (centres undefined)     inhibition               -9
2  COc1ccc2nccc(N3CCCN(CCNCc4ccc5c(n4)NC(=O)CS5)CC3)c2n1     inhibition               -2
3  CC(C)COc1ccc(Cl)cc1Cc1nc(-c2nc3ccc(CN(C)C)cc3[nH]2)co1     inhibition                5
4  CC(=O)Nc1ccc(CN(C)C2CCN(c3cc(NC(=O)c4cccc(C)c4)ccn3)CC2)cc1     inhibition               -1
5  CN(C)C(CNc1ncnc2cc(Cl)ccc12)Cc1ccccc1 (centres undefined)     inhibition               -4
6  COc1cc(C)nc2ccc(NC(=O)c3cc([N+](=O)[O-])cc([N+](=O)[O-])c3)cc12     inhibition                2
7  CC[C@H](C)CNC(=O)c1ccnc(-c2ccc(CNCCCc3ccccc3)cc2)c1     inhibition               -4
8  CCn1ccc2c(N3CCCC3=O)cc(C(=O)N[C@@H](Cc3ccccc3)[C@H](O)CNC3CCCCC3)cc21     inhibition                2

* * *

# study_target: Plasmodium falciparum protein kinase 6 (PK6, PF3D7_1337100)
# experiment_description: PfPK6 kinase inhibitors, biochemical, TCAMS library (AID 1159586)
# condition_context: recombinant PfPK6, Kinase-Glo ATP depletion luminescence
Measured potencies and affinities stand elsewhere. The source made the active and inactive calls. How the calls were made is not given here.
assay_readout: outcome

                                    compound    result
 0  COc1ccc(C)cc1NC(=O)CSc1nc2cccnc2n1C1CCCCC1  inactive
 1  COc1cc(NC(=O)c2cc([N+](=O)[O-])ccc2NC(=O)CNC2CCCC(C)C2C)cc(OC)c1 (stereo not given)  inactive
 2  Cc1cccc2[nH]c(-c3cccc(-c4cccc(CNCCNC(=O)c5ccnn5C)c4)c3)nc12  inactive
 3  COc1ccc2nccc(NC(=O)C3CCC(NCc4ccc5c(c4)NC(=O)CS5)CC3)c2c1 (stereo not given)  inactive
 4  Cc1nnsc1C(=O)Nc1cccc(-c2csc(-c3nc4ccccc4[nH]3)c2)c1  inactive
 5  Nc1c2c(nc3ccc(C(=O)Nc4ccc(Br)cc4)cc13)CCCC2  inactive
 6  CCNc1cc(C(=O)N[C@@H](Cc2ccc(Cl)cc2)[C@H](O)CNC2CCCCC2)cc(N2CCCCS2(=O)=O)c1  inactive
 7  CC(CCCC(=O)Nc1ccc(CC(C)NCCc2cccc(Cl)c2)cc1)NCCc1cccc(Cl)c1 (stereo not given)  inactive
 8            NC(N)=NN=Cc1ccc2ccc3ccccc3c2c1  inactive
 9  Nc1ncc(-c2ccc(NC(=O)Nc3cc(C(F)(F)F)ccc3F)cc2)c(N)n1  inactive
10  CCOc1ccc(Br)cc1/C=C/C(=O)Nc1ccc(C2CCN(C)CC2)cc1  inactive
11  CN1CCN(c2ccc(CNc3ccc4ncc(-c5cccc(OC(F)(F)F)c5)n4n3)cc2)CC1  inactive
12  Cc1cccc2[nH]c(-c3ccc(-c4cccc(CNCC5CCCO5)c4)cc3)nc12 (stereo not given)  inactive
13            CC(=O)c1c(Cc2ccccc2Cl)c[nH]c1C  inactive
14  COc1ccc(CNCc2cccc(-c3cccc(-c4nc5ccc(F)cc5[nH]4)c3)c2)cc1  inactive
15  O=C(/C=C/c1ccc(Cl)c(Cl)c1)N1CCC(CCN2CCc3[nH]c4ccccc4c3C2)CC1  inactive
16  COc1ccc(Nc2nccc(N3CCC(NC(=O)Nc4cc(C)ccc4C)C3)n2)cc1 (stereo not given)  inactive
17  N#Cc1ccc(-c2ccc(C(=O)NCCCCN3CCC(c4ccc5c(c4OCC(N)=O)CCCC5)CC3)cc2)cc1  inactive
18  COc1ccc(-c2cccc(NC(=O)c3cccc(Cl)c3)c2)cc1CN1CCCN(C)CC1  inactive
19  O=C(COc1ccccc1Cl)N1CCc2cc3nccc(N4CCN5CCC[C@H]5C4)c3cc21  inactive

* * *

# experiment_description: human hepatoma cell viability loss – ATP luminescence, cytotoxicity control for P. falciparum antimalarial project, primary screen (AID 2303);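 also: 0% = DMSO wells and 100% = digitonin-killed cells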
# condition_context: HepG2 viability, 24-48 h, at 10 µM
Activity calls are given as the source filed them.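 Rule for the calls: active = inhibition above 50%; inactive = the rest.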
Possible outcomes: t for active, f for inactive

In [3]: df
Out[3]:
                                    compound  assigned_class
 0  O=C1OC2(CCN(C(=O)c3ccc(-n4cnnn4)cc3)CC2)CN1Cc1ccc(Cl)c(Cl)c1               f
 1              COc1cccc2c(Oc3ccccc3C)ccnc12               f
 2  COc1ccc2nccc([C@@H](O)CN3CCC(NC(=O)/C=C/c4ccc(Cl)c(C(F)(F)F)c4)CC3)c2c1               f
 3  COc1ccc2ncc(C#N)c(CCN3C[C@H](CNCc4ccccc4)[C@H](O)C3)c2n1               f
 4  Cc1noc(C)c1-c1cccc(CNCc2cccc(-c3cccc(-c4nc5c(C)cccc5[nH]4)c3)c2)c1               f
 5  Cc1[nH]c(C)c(Cc2ccc(Oc3ccc(OC(F)(F)F)cc3)cc2)c(=O)c1Br               f
 6  COc1ccc(C(=O)N2CCC(CN3CCOC(c4ccccc4)(c4ccccc4)C3)CC2)cc1               f
 7  O=C(Nc1cccc(C(F)(F)F)c1)c1ccc(S(=O)(=O)NCC2CCN(CC3CCCCC3)CC2)cc1               f
 8  O=S(=O)(NCCN1CCCC1)c1cccc(-c2ccc(CNCc3ccc(F)cc3)cc2)c1               f
 9             CCc1nc(N)nc(N)c1-c1cccc(Cl)c1               t
10  COc1cc(NC(=O)c2sc(-c3ccc(Cl)cc3)cc2NC(=O)CN2CCCC2)ccc1OCCN1CCCC1               f
11  CC(=O)Nc1cccc(CN(Cc2ccc(-c3ccc(CNCc4cccnc4)cn3)cc2)C(=O)Cc2cccnc2)c1               f
12  Cc1cc(N(C)C)nc(Nc2ccc(NC(=O)COc3ccccc3)cc2)n1               f
13  CC(Oc1ccc(NC(=O)c2cccs2)cc1)C(=O)c1ccc(Cl)cc1 (stereo not given)               f
14  CC(=O)c1ccc(S(=O)(=O)N2CCC(C(=O)Nc3ccccc3N3CCCC3)CC2)cc1               f
15  c1ccc2c(CNc3ccnc(NCc4cccc5ccccc45)n3)cccc2c1               t
16  COc1cc2nc(Nc3ccc(N4CCOCC4)cc3)nc(N)c2cc1OC               f
17  CC(Cc1ccc(NC(=O)c2ccc(NCCc3ccccc3)cc2)cc1)NCCc1cccc(Cl)c1 (stereo not given)               f
18  CCC(C)C#Cc1c(C)nc(N)nc1N (stereo not given)               t
19  CCNc1cc(C(=O)N[C@@H](Cc2ccccc2)[C@H](O)CNC(C)(C)Cc2ccccc2)cc(N2CCCC2=O)c1               f
